# System: saphenous veins
# EXPERIMENT: In vitro contraction of dog saphenous veins (agonist concentration/effect curve)
# CONDITION: Canis lupus familiaris; VEIN; saphenous vein rings, dog, 37° C.
# Procedure: In vitro study on the femoral arteries and saphenous veins of dogs The technique used is based on that described by Fowler et at. (J. Pharmacol. Exp. Ther., 229, 712-718, 1984). Male or female mongrel dogs weighing approximately 15-25 kg were used as organ sources. The animals are anesthetized with pentrobarbital (30 mg/kg, intravenously). Incisions are made in the legs and the vessels are withdrawn. […] After readjusting the base tension, a contraction is caused by a single dose of KCl (100 mM). […]
QUANTITY MEASURED: EC50

[[record]]
molecule = "COc1ccc(OC)c2c1CCC1(CNC=N1)C2 (single isomer, unassigned) [Example 7]"
experimental_target = "saphenous veins"
assay_value = "120 nM"


Request body: readout EC50, system saphenous veins, query COc1cccc2c1CCC1(CNC=N1)C2 (stereo not shown) . Return the value.
6400 nM

Moving on to the next molecule: COc1ccc(OC)c2c1CCC1(CNC=N1)C2 (stereo not shown) [Example 1]
200 nM

// query: COc1ccc(SC)c2c1CC1(CC2)CNC=N1 (stereo not shown)
800 nM
